systemTested: Alpha-2A adrenergic receptor (Homo sapiens, UniProt P08913); further: assay procedure not described here
Sequence (P08913 whole entry): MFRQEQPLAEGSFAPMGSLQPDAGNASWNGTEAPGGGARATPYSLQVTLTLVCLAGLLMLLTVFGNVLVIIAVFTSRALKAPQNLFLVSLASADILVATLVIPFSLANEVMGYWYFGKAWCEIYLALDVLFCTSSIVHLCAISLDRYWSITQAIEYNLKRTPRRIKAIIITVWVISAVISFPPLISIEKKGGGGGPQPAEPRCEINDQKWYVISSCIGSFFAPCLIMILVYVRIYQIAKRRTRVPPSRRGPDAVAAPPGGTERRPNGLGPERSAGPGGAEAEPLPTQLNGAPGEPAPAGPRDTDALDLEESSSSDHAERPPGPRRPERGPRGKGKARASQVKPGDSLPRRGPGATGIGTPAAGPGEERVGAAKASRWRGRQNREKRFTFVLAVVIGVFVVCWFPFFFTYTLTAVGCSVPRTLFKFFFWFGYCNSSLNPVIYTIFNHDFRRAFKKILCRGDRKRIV
Assay type: functional, cell-based
# AC50 per record follows
quantity: AC50

CN1CCC(=C2c3ccccc3CCc3sccc32)CC1 :: > 30 µM
COc1ccc2c3c1O[C@H]1C(=O)CC[C@@]4(O)[C@@H](C2)N(C)CC[C@]314 :: > 30 µM
Cn1c(=O)c2c(ncn2CC2OCCO2)n(C)c1=O :: > 30 µM
CN(C)CC/C=C1\c2ccccc2CSc2ccccc21 [DOTHIEPIN] :: > 30 µM
Nc1nc(NC2CC2)c2ncn([C@H]3C=C[C@@H](CO)C3)c2n1 :: > 30 µM
CN(C)CCC=C1c2ccccc2C(C)(C)c2ccccc21 :: > 30 µM
CC[C@H]1OC(=O)[C@H](C)[C@@H](O[C@H]2C[C@@](C)(OC)[C@@H](O)[C@H](C)O2)[C@H](C)[C@@H](O[C@@H]2O[C@H](C)C[C@H](N(C)C)[C@H]2O)[C@](C)(O)C[C@@H](C)CN(C)[C@H](C)[C@@H](O)[C@]1(C)O :: > 10 µM
CN1C(=O)OC(C)(C)C1=O :: > 10 µM
C[C@H]1COc2c(C3(N)CC3)c(F)cc3c(=O)c(C(=O)O)cn1c23 :: > 10 µM
CN(C)CCc1c[nH]c2ccc(C[C@H]3COC(=O)N3)cc12 :: > 30 µM
C[C@]1(O)CC[C@H]2[C@@H]3CCC4=CC(=O)CC[C@]4(C)[C@@]3(F)[C@@H](O)C[C@@]21C :: > 10 µM
O=C(O)CCCCCCCC(=O)O :: > 10 µM
COc1cc2c(N)nc(N3CCN(C(=O)OCC(C)(C)O)CC3)nc2c(OC)c1OC :: > 30 µM
Cc1c(C(=O)NN2CCCCC2)nn(-c2ccc(Cl)cc2Cl)c1-c1ccc(Cl)cc1 :: > 30 µM
CCCC1O[C@@H]2C[C@H]3[C@@H]4CCC5=CC(=O)C=C[C@]5(C)[C@H]4[C@@H](O)C[C@]3(C)[C@]2(C(=O)CO)O1 (some centres not stated) [BUDESONIDE] :: > 10 µM
CC(C)C(=O)c1c(C(C)C)nn2ccccc12 :: > 30 µM
O=C(Cc1ccc(-c2ccccc2)cc1)Nc1ccccn1 [DIFENPIRAMIDE] :: > 30 µM
CC(C)(C)c1cc(C(C)(C)C)c(NC(=O)c2c[nH]c3ccccc3c2=O)cc1O :: > 10 µM
CC(C(=O)O)c1ccc(N2Cc3ccccc3C2=O)cc1 (configuration not stated) :: > 30 µM
C[C@]12CC[C@H]3[C@@H](CCC4=CC(=O)CC[C@@]43C)[C@@H]1CC[C@@H]2O :: > 10 µM
O=C(NCCN1CCOCC1)c1ccc(Cl)cc1 [MOCLOBEMIDE] :: > 10 µM
O=C(O)[C@H](CC(=O)N1C[C@H]2CCCC[C@H]2C1)Cc1ccccc1 [MITIGLINIDE] :: > 10 µM
